Overview of reported % inhibition across a group of compounds:
# System: An + Pf (Aspergillus niger + Penicillium funiculosum)
# measurement-protocol: Fungal efficacy testing, modified ASTM 5590 (6-well, mixed inoculum, Example 4)
# Type: cell-based
# measurement-setup: An + Pf; at the Total conc; four weeks
observed-property: % inhibition (%)

compound: CCCCCCCCn1sccc1=O [OIT, 2-n-octyl-4-isothiazolin-3-one]
measured-value: 100
//
compound: Cc1ccc(S(=O)(=O)C(I)I)cc1 [DIMTS, diiodomethyl-p-tolylsulfone]
measured-value: 100
//
compound: c1ccc2[nH]c(-c3cscn3)nc2c1 [TBZ, thiabendazole]
measured-value: 100
//
compound: CN(C)C(=O)Nc1cccc(C(F)(F)F)c1 [Fluometuron]
measured-value: 0

* * *

# Tested on: Gs + Os (Gloeocapsa sp. + Oscillatoria sp.)
# measurement-protocol: Algal efficacy testing, modified ASTM 5589 (6-well, mixed inoculum, Example 4)
# Assay type: cell-based
# measurement-setup: Gs + Os; at the Total conc; four weeks

smiles-text: CCCCCCCCn1sccc1=O
study-system: Gs + Os (Gloeocapsa sp. + Oscillatoria sp.)
% inhibition / %: 100

smiles-text: CN(C)C(=O)Nc1cccc(C(F)(F)F)c1
study-system: Gs + Os (Gloeocapsa sp. + Oscillatoria sp.)
% inhibition / %: 100

smiles-text: Cc1ccc(S(=O)(=O)C(I)I)cc1
study-system: Gs + Os (Gloeocapsa sp. + Oscillatoria sp.)
% inhibition / %: 100

smiles-text: CCCCCCCCn1sc(Cl)c(Cl)c1=O
study-system: Gs + Os (Gloeocapsa sp. + Oscillatoria sp.)
% inhibition / %: 100

smiles-text: c1ccc2[nH]c(-c3cscn3)nc2c1
study-system: Gs + Os (Gloeocapsa sp. + Oscillatoria sp.)
% inhibition / %: 100

* * *

# Tested on: Gs + Os (Gloeocapsa sp. + Oscillatoria sp.)
# measurement-protocol: Algal efficacy testing, modified ASTM 5589 (6-well, mixed inoculum, Example 4)
# Type: cell-based
# measurement-setup: Gs + Os mixed inoculum; four weeks; NE = no end point at the concentration tested
observed-property: Total conc, ppm (ppm)

molecule: CN(C)C(=O)Nc1cccc(C(F)(F)F)c1 [Fluometuron]
quantity-unit: ppm
measured-value: 312.5

molecule: CCCCCCCCn1sccc1=O [OIT, 2-n-octyl-4-isothiazolin-3-one]
quantity-unit: ppm
measured-value: 1350

molecule: c1ccc2[nH]c(-c3cscn3)nc2c1 [TBZ, thiabendazole]
quantity-unit: ppm
measured-value: 1875

molecule: CCCCCCCCn1sc(Cl)c(Cl)c1=O [DCOIT]
quantity-unit: ppm
measured-value: 287.5

molecule: Cc1ccc(S(=O)(=O)C(I)I)cc1 [DIMTS, diiodomethyl-p-tolylsulfone]
quantity-unit: ppm
measured-value: 1875

* * *

# Test system: Cs + Ck + Nc (Chlorella sp., Chlorella kessleri, Nostoc commune)
# measurement-protocol: Algal efficacy testing, modified ASTM 5589 (6-well, mixed inoculum, Example 4)
# Assay type: cell-based
# measurement-setup: Cs + Ck + Nc mixed inoculum; four weeks; NE = no end point at the concentration tested
Overview of reported Total conc, ppm across a group of compounds:

smiles-text: c1ccc2[nH]c(-c3cscn3)nc2c1
Total conc, ppm / ppm: 1250

smiles-text: CCCCCCCCn1sc(Cl)c(Cl)c1=O
Total conc, ppm / ppm: 575

smiles-text: Cc1ccc(S(=O)(=O)C(I)I)cc1
Total conc, ppm / ppm: 1250

smiles-text: CCCCCCCCn1sccc1=O
Total conc, ppm / ppm: 1350

smiles-text: CN(C)C(=O)Nc1cccc(C(F)(F)F)c1
Total conc, ppm / ppm: 1250
